Assay: Liver Microsome Stability Assay (mouse)
Conditions: mouse liver microsomes, with NADPH, 1.0 uM compound
reportedProperty: Liver Microsome Stability (Multiple Species): Mouse - % Remaining after 30 min w/NADPH (%)

compound	numericReadout
Cc1cccc2nc(/C=C/c3csc(NC(=O)c4cccn4Cc4ccncc4)n3)cn12 [Compound B77]	2.21
O=C1CCc2cc(N3CCC[C@@H]3c3csc(NC(=O)c4cccn4Cc4ccncc4)n3)ccc2N1 [Compound A75]	3.74
N#Cc1ccccc1Cn1cccc1C(=O)Nc1nc([C@H]2CCCN2c2ccccc2)cs1 [Compound C86]	43.5
CN(C)C(=O)CCn1cccc1C(=O)Nc1nc([C@H]2CCCN2c2ccccc2)cs1 [Compound C59]	3.23
O=C(Nc1nc([C@H]2CCCN2c2ccccc2)cs1)c1cccn1CC1CC(F)(F)C1 [Compound C94]	52.1
O=C(Nc1nc(/C=C/c2ccncn2)cs1)c1cccn1Cc1ccncc1 [Compound B44]	4.87
O=C(Nc1nc([C@H]2CCCN2c2ccc(Cl)cc2)cs1)c1cccn1Cc1ccncc1 [Compound A26]	5.75
CN(C)S(=O)(=O)N1CC(Oc2ccc(N3CCC[C@@H]3c3csc(NC(=O)c4cccn4Cc4ccnc(F)c4)n3)cc2)C1 [Compound A148]	4.79

(1) CC(=O)N1CCCC(c2ccc(N3CCC[C@@H]3c3csc(NC(=O)c4cccn4Cc4ccncc4)n3)cc2)C1 (stereo partly shown) [Compound A63]
(2) O=C(Nc1nc([C@H]2CCCN2c2ccc(C3CC3)cc2)cs1)c1cccn1Cc1ccncc1 [Compound A24]
(3) O=C(Nc1nc([C@H]2CCCN2c2ccc(C(F)(F)F)cc2)cs1)c1cccn1CC1CCOCC1 [Compound C91]
(4) NC(=O)c1ccc(N2CCC[C@@H]2c2csc(NC(=O)c3cccn3Cc3ccnc(F)c3)n2)cc1 [Compound A65]
Rank entries according to their Liver Microsome Stability (Multiple Species): Mouse - % Remaining after 30 min w/NADPH, from the largest number down. // list labels; follow requested order
3, 2, 4, 1
(3: 88.3%, 2: 19.9%, 4: 7.68%, 1: 3.64%)
